Where these numbers come from: PubChem BioAssay AID738

- assayText: growth inhibition of yeast control strain, primary screen, counter-screen for post-Golgi transport modulator project (AID 738)
- conditionParameters: efflux-deficient yeast background strain, growth absorbance A615, 16 h; at 10 µM
Hit rate of the full screen: of about 98,000 compounds, about 4,900 (5%) were called active. Cut-off read from the data, not from the text of the source: active = inhibition above about 30%; inactive = the rest. The full list was thinned out, with actives kept by preference.
Respond only with the outcome that fits, drawn from active, inactive

O=C(Nc1nccs1)C1CCN(S(=O)(=O)c2ccc(Cl)c(C(F)(F)F)c2)CC1 :: inactive

*Q* Outcome? Cc1ccnc(N2CCN(C(=O)CSc3nc4ccccc4nc3N3CCCCC3)CC2)c1
*A* active

*Q* Outcome? CC1Cc2nc(SCC(=O)Nc3ccccc3F)n(C)c(=O)c2S1 (stereo not given)
*A* inactive

*Q* Outcome? O=C(Nc1cccn(Cc2c(Cl)cccc2Cl)c1=O)c1ccc(Cl)cc1
*A* inactive

*Q* Outcome? O=C(CCC(=O)OCc1cccc(C(=O)Oc2ccccc2)c1)Nc1cccc2ccccc12
*A* inactive

*Q* Outcome? O=C(/C=C/c1ccccc1)N/C(=C/c1ccccc1)C(=O)Nc1ccccc1O
*A* inactive

*Q* Outcome? CCOc1cc2[nH]c(=S)n(CCN3CCCCC3C)c(=O)c2cc1OCC (stereo not given)
*A* inactive

*Q* Outcome? CCn1c(SCC(=O)Nc2ccc3c(c2)OCCO3)nc2c(c1=O)SC(C)C2 (stereo not given)
*A* inactive

*Q* Outcome? CCn1c(SCC(=O)Nc2ccccc2F)nc2c(c1=O)SC(C)C2 (stereo not given)
*A* active

*Q* Outcome? Cn1c(NN)nc2sc3c(c2c1=O)CCC3
*A* inactive
